# Test system: Plasmodium falciparum
# assay overview: Inhibition of Plasmodium falciparum recombinant falcipain-2 expressed in Escherichia coli at 100 uM after 20 min by spectrofluorometry
Square brackets hold non-standard residues; d marks the D form. Peptide text beside a SMILES is read from it. * marks the point of attachment. Fumaroyl(GlyGlyPheOH) = O=C(/C=C/C(=O)*)NCC(=O)NCC(=O)N[C@@H](Cc1ccccc1)C(=O)O; Chg = N[C@H](C(=O)O)C1CCCCC1; Dap = NC[C@H](N)C(=O)O
endpoint: inhibition (%)

• CC(=O)NC[C@H](NC(=O)/C=C/C(=O)NCC(=O)NCC(=O)N[C@@H](Cc1ccccc1)C(=O)O)C(=O)N[C@H](C(=O)N[C@@H](C)C(=O)N[C@H](C(N)=O)C(C)C)C1CCCCC1 ({Fumaroyl(GlyGlyPheOH)}-[Dap](Ac)[Chg]AV-NH2) = 83
• CC(C)C[C@H](NC(=O)[C@H](C)NC(=O)/C=C/C(=O)N[C@@H](C)C(=O)NCC(=O)N[C@@H](Cc1ccccc1)C(=O)O)C(=O)N[C@@H](CC(C)C)C(=O)N[C@H](C(N)=O)C(C)C (HELM PEPTIDE1{[C[C@H](NC(=O)/C=C/C(=O)[*:2])C(=O)NCC(=O)N[C@@H](Cc1ccccc1)C(=O)O].A.L.L.V.[am]}$$$$V2.0) = 86
• CC(C)C[C@H](NC(=O)[C@H](CC(N)=O)NC(=O)/C=C/C(=O)NCC(=O)NCC(=O)N[C@@H](Cc1ccccc1)C(=O)O)C(=O)N[C@@H](C)C(=O)N[C@H](C(N)=O)C(C)C (HELM PEPTIDE1{[O=C(/C=C/C(=O)[*:2])NCC(=O)NCC(=O)N[C@@H](Cc1ccccc1)C(=O)O].N.L.A.V.[am]}$$$$V2.0) = 33

* * *

# assayed target: Rhodesain (Trypanosoma brucei rhodesiense)
# assay overview: Inhibition of Trypanosoma brucei rhodesiense rhodesain after 12 hrs by fluorescence spectroscopy-based on-bead assay
# Design: concentration or dose not given beside the values
# measurement setup: concentration not given here
Peptide text beside a SMILES is read from it.
endpoint: inhibition (%)

- CC[C@H](C)[C@H](NC(=O)[C@H](CC(N)=O)NC(=O)/C=C/C(=O)NCC(=O)NCC(=O)N[C@@H](Cc1ccccc1)C(=O)O)C(=O)N[C@@H](CC(C)C)C(=O)N[C@H](C(N)=O)C(C)C (HELM PEPTIDE1{[O=C(/C=C/C(=O)[*:2])NCC(=O)NCC(=O)N[C@@H](Cc1ccccc1)C(=O)O].N.I.L.V.[am]}$$$$V2.0): 68
- CC(=O)NC[C@H](NC(=O)/C=C/C(=O)N[C@@H](C)C(=O)NCC(=O)N[C@@H](Cc1ccccc1)C(=O)O)C(=O)N[C@@H](Cc1ccccc1)C(=O)N[C@H](C(=O)N[C@H](C(N)=O)C(C)C)C(C)C (HELM PEPTIDE1{[C[C@H](NC(=O)/C=C/C(=O)[*:2])C(=O)NCC(=O)N[C@@H](Cc1ccccc1)C(=O)O].[O=C([C@H](CN[*:3])N[*:1])[*:2]].F.V.V.[am]}|PEPTIDE2{[ac]}$PEPTIDE1,PEPTIDE2,2:R3-1:R2$$$V2.0): 44
- CC(C)C[C@H](NC(=O)[C@@H](NC(=O)[C@H](CCC(N)=O)NC(=O)/C=C/C(=O)N[C@@H](C)C(=O)NCC(=O)N[C@@H](Cc1ccccc1)C(=O)O)C1CCCCC1)C(=O)N[C@H](C(N)=O)C(C)C (HELM PEPTIDE1{[C[C@H](NC(=O)/C=C/C(=O)[*:2])C(=O)NCC(=O)N[C@@H](Cc1ccccc1)C(=O)O].Q.[O=C([C@@H](N[*:1])C1CCCCC1)[*:2]].L.V.[am]}$$$$V2.0): 52
